# System: Saccharomyces cerevisiae
# method-notes: protein stability index of tFT-peptide fusion (C-terminal peptide) (PSI (0-1 scale)); higher = more stable (slower turnover)
# details: genetic background: wild type; temperature: 30 C
protein stability index reference

chain-sequence: FRDRFLRWNLVS
protein stability index: 0.223
//
chain-sequence: TVRVVMLRLLFT
protein stability index: 0.418
//
chain-sequence: SHSKSQRRFQTR
protein stability index: 0.637
//
chain-sequence: RISWLKEATAIK
protein stability index: 0.689
//
chain-sequence: NINITQNVKNIK
protein stability index: 0.716
//
chain-sequence: ATRSTLHDSMVS
protein stability index: 0.714
//
chain-sequence: VWYSCWSFLVLF
protein stability index: 0.291
//
chain-sequence: VDASGYDEQSVH
protein stability index: 0.662
//
chain-sequence: VEFWGAVCNDCL
protein stability index: 0.706
//
chain-sequence: SVSGRYYAVRVR
protein stability index: 0.566
//
chain-sequence: RAGVFLPSGVAI
protein stability index: 0.663
//
chain-sequence: FLFPTLSPITGC
protein stability index: 0.612
//
chain-sequence: LFAGPPTGPNAR
protein stability index: 0.802
//
chain-sequence: RILSCGCVCFVM
protein stability index: 0.702
//
chain-sequence: SSRELVDGVGIA
protein stability index: 0.763
//
chain-sequence: PPPLPPPYPPPP
protein stability index: 0.627
//
chain-sequence: GPFDVLPEPNPG
protein stability index: 0.635
//
chain-sequence: ILLYSPFGPPSS
protein stability index: 0.673
//
chain-sequence: KKQKKKQNKQKT
protein stability index: 0.731
//
chain-sequence: RAYATPIPRSAI
protein stability index: 0.655
//
chain-sequence: YDDSSLLFSNNL
protein stability index: 0.702
//
chain-sequence: GEVKRSLGQVRG
protein stability index: 0.695
//
chain-sequence: PPLPPAPTPALP
protein stability index: 0.684
//
chain-sequence: WKEMRKKVGRGK
protein stability index: 0.696
//
chain-sequence: SLPRPPVPLLPS
protein stability index: 0.707
//
chain-sequence: VAGQISGLIYFR
protein stability index: 0.699
//
chain-sequence: KGKRQNIERCRK
protein stability index: 0.644
//
chain-sequence: SRRERALGQQPI
protein stability index: 0.679
//
chain-sequence: LPPPPSASPPRP
protein stability index: 0.794
//
chain-sequence: ITRATPILSYKK
protein stability index: 0.677
//
chain-sequence: HEGPGTTEFLGL
protein stability index: 0.717
//
chain-sequence: LSRSTSYILIII
protein stability index: 0.515
//
chain-sequence: LGVVCVGWLGGL
protein stability index: 0.664
//
chain-sequence: RPSHSPAFSAFF
protein stability index: 0.681
//
chain-sequence: YFCGRGSVLLVT
protein stability index: 0.56
//
chain-sequence: SRAARLPLFYFD
protein stability index: 0.675
//
chain-sequence: QAGALTTIPTFA
protein stability index: 0.616
//
chain-sequence: EEMMGGAETLHQ
protein stability index: 0.649
//
chain-sequence: GGSEEGGKAAKT
protein stability index: 0.652
//
chain-sequence: QLLCLFSIPRSA
protein stability index: 0.724
//
chain-sequence: RPTTTQPPPTAS
protein stability index: 0.62
//
chain-sequence: VWLGGGVRLGRL
protein stability index: 0.738
//
chain-sequence: ERKKDGRKVRKK
protein stability index: 0.658
//
chain-sequence: SSTLVAFRFPSP
protein stability index: 0.701
//
chain-sequence: GGMVRSCLWCFV
protein stability index: 0.432
//
chain-sequence: GVSLLCLFLGSP
protein stability index: 0.621
//
chain-sequence: EGRFRNGRAVSG
protein stability index: 0.673
//
chain-sequence: APPPPTPPPPPA
protein stability index: 0.7
//
chain-sequence: KIKKKRGKTKKK
protein stability index: 0.708
//
chain-sequence: GLAQRAIKNRHR
protein stability index: 0.679
//
chain-sequence: LRSIAVLPPSPF
protein stability index: 0.695
//
chain-sequence: FGCLFFSPLSIH
protein stability index: 0.745
//
chain-sequence: SAIGVGGGGTGG
protein stability index: 0.676
//
chain-sequence: LISRLVLVFVIP
protein stability index: 0.38
//
chain-sequence: SPHPPPSRLPPP
protein stability index: 0.709
//
chain-sequence: REGKGREQGRKK
protein stability index: 0.616
//
chain-sequence: PPGPPPSSPPPP
protein stability index: 0.73
//
chain-sequence: MLGRLLDRCYDY
protein stability index: 0.678
//
chain-sequence: CRGEGGRTVING
protein stability index: 0.634
//
chain-sequence: GQKKGRGGEREE
protein stability index: 0.676
//
chain-sequence: SPLHGFLFLVLL
protein stability index: 0.424
//
chain-sequence: AATDWFHLPFPP
protein stability index: 0.682
//
chain-sequence: SASPFYLPPPPV
protein stability index: 0.735
//
chain-sequence: KIKVKTKKWNIK
protein stability index: 0.681
//
chain-sequence: PSPTRPPAYPRS
protein stability index: 0.672
//
chain-sequence: GIPVRRLLFLVA
protein stability index: 0.292
//
chain-sequence: SHAAKRYNHPHS
protein stability index: 0.733
//
chain-sequence: LLHEAFSSPLSS
protein stability index: 0.716
//
chain-sequence: PPPLRTHTGPPP
protein stability index: 0.678
//
chain-sequence: SFPPPPFPPLFL
protein stability index: 0.722
//
chain-sequence: LFWCCVGLSVWR
protein stability index: 0.43
//
chain-sequence: PATPPLRFPPSA
protein stability index: 0.409
//
chain-sequence: SYLDWFLVLDMF
protein stability index: 0.671
//
chain-sequence: LPPPPPLPSSPL
protein stability index: 0.685
//
chain-sequence: HLPSHPSLPPAP
protein stability index: 0.707
//
chain-sequence: PAPPTPPPPLYP
protein stability index: 0.715
//
chain-sequence: HPTLPPHPPPHP
protein stability index: 0.768
//
chain-sequence: PALPPPFPPFSP
protein stability index: 0.72
//
chain-sequence: SARSYLTERLLA
protein stability index: 0.252
//
chain-sequence: DFAGVCRWSLRG
protein stability index: 0.645
//
chain-sequence: LLSPPPHPPPLI
protein stability index: 0.665
//
chain-sequence: FGFYTYFRPGLG
protein stability index: 0.698

---

protein stability index reference
# Tested on: Saccharomyces cerevisiae
# method-notes: protein stability index of tFT-peptide fusion (C-terminal peptide) (PSI (0-1 scale)); higher = more stable (slower turnover)
# details: genetic background: wild type; temperature: 30 C

chain-sequence: VEKKKVLSKITL [VPH2 C-terminal 12 aa]
tested-on: Saccharomyces cerevisiae
protein stability index: 0.691
//
chain-sequence: ERWVRMGELMHY [YBR184W C-terminal 12 aa]
tested-on: Saccharomyces cerevisiae
protein stability index: 0.538
//
chain-sequence: KLDIPVSFLLAA [YBL053W C-terminal 12 aa]
tested-on: Saccharomyces cerevisiae
protein stability index: 0.467
//
chain-sequence: LICQTESNPKIV [VPS8 C-terminal 12 aa]
tested-on: Saccharomyces cerevisiae
protein stability index: 0.694
//
chain-sequence: MFKCARQSEFDK [MTG2 C-terminal 12 aa]
tested-on: Saccharomyces cerevisiae
protein stability index: 0.683
//
chain-sequence: EEFINKLVKAMN [RPL7B C-terminal 12 aa]
tested-on: Saccharomyces cerevisiae
protein stability index: 0.616
//
chain-sequence: LTMLPPMAPLLS [YMR158W-B C-terminal 12 aa]
tested-on: Saccharomyces cerevisiae
protein stability index: 0.653
//
chain-sequence: EDLDSDLFSEVE [SSF1 C-terminal 12 aa]
tested-on: Saccharomyces cerevisiae
protein stability index: 0.732
//
chain-sequence: DAKNANEKNKTY [PIS1 C-terminal 12 aa]
tested-on: Saccharomyces cerevisiae
protein stability index: 0.42
//
chain-sequence: VSGKKFQNVRVL [YPL247C C-terminal 12 aa]
tested-on: Saccharomyces cerevisiae
protein stability index: 0.676
//
chain-sequence: HELKTHLPLNLI [SMT1 C-terminal 12 aa]
tested-on: Saccharomyces cerevisiae
protein stability index: 0.697
//
chain-sequence: NGHVSKKAKVTK [LYS21 C-terminal 12 aa]
tested-on: Saccharomyces cerevisiae
protein stability index: 0.667
//
chain-sequence: KSLFSIIDDLQS [MSH6 C-terminal 12 aa]
tested-on: Saccharomyces cerevisiae
protein stability index: 0.727
//
chain-sequence: DIEVDHTKSTDP [DPB3 C-terminal 12 aa]
tested-on: Saccharomyces cerevisiae
protein stability index: 0.676
//
chain-sequence: ATPPYQVFKQQL [FMN1 C-terminal 12 aa]
tested-on: Saccharomyces cerevisiae
protein stability index: 0.668
//
chain-sequence: EGSAFKKQKHYR [NOP9 C-terminal 12 aa]
tested-on: Saccharomyces cerevisiae
protein stability index: 0.701
//
chain-sequence: EEGIDPSTYLNN [SUB2 C-terminal 12 aa]
tested-on: Saccharomyces cerevisiae
protein stability index: 0.684
//
chain-sequence: ALQVLEERMVNP [YOL107W C-terminal 12 aa]
tested-on: Saccharomyces cerevisiae
protein stability index: 0.699
//
chain-sequence: ALKKEYEAKKKA [COA3 C-terminal 12 aa]
tested-on: Saccharomyces cerevisiae
protein stability index: 0.664
//
chain-sequence: VFSKKEPFPHSK [YJR084W C-terminal 12 aa]
tested-on: Saccharomyces cerevisiae
protein stability index: 0.771
//
chain-sequence: LEKVLNQIGLKN [YNL011C C-terminal 12 aa]
tested-on: Saccharomyces cerevisiae
protein stability index: 0.642
//
chain-sequence: KTGKSSVIDLQR [GCN2 C-terminal 12 aa]
tested-on: Saccharomyces cerevisiae
protein stability index: 0.726
//
chain-sequence: IQFFSQCTSCTV [YLR286W-A C-terminal 12 aa]
tested-on: Saccharomyces cerevisiae
protein stability index: 0.526
//
chain-sequence: QRDFLLFYNAIM [CDC36 C-terminal 12 aa]
tested-on: Saccharomyces cerevisiae
protein stability index: 0.533
//
chain-sequence: ELLRIHNSHLRN [FOL3 C-terminal 12 aa]
tested-on: Saccharomyces cerevisiae
protein stability index: 0.709
//
chain-sequence: RARLIRKKKTIN [YER085C C-terminal 12 aa]
tested-on: Saccharomyces cerevisiae
protein stability index: 0.202
//
chain-sequence: LSVHPLKPCDPN [INP52 C-terminal 12 aa]
tested-on: Saccharomyces cerevisiae
protein stability index: 0.661
//
chain-sequence: IIQDNISPRLVV [RRP46 C-terminal 12 aa]
tested-on: Saccharomyces cerevisiae
protein stability index: 0.665
//
chain-sequence: LVLKQRQEQEKQ [GDI1 C-terminal 12 aa]
tested-on: Saccharomyces cerevisiae
protein stability index: 0.717
//
chain-sequence: EIALRKSGAVGS [YMR008C-A C-terminal 12 aa]
tested-on: Saccharomyces cerevisiae
protein stability index: 0.673
//
chain-sequence: VASLPSRYSRYD [ALR1 C-terminal 12 aa]
tested-on: Saccharomyces cerevisiae
protein stability index: 0.654
//
chain-sequence: QDNSEVVDLTSD [NFI1 C-terminal 12 aa]
tested-on: Saccharomyces cerevisiae
protein stability index: 0.673
//
chain-sequence: IRLKRRDFMKNL [RRT12 C-terminal 12 aa]
tested-on: Saccharomyces cerevisiae
protein stability index: 0.382
//
chain-sequence: HQNENMFLTELY [YDL247W-A C-terminal 12 aa]
tested-on: Saccharomyces cerevisiae
protein stability index: 0.707
//
chain-sequence: KQLQEGNRRHKL [DCI1 C-terminal 12 aa]
tested-on: Saccharomyces cerevisiae
protein stability index: 0.808
//
chain-sequence: LRRGEPDNKVNR [SPG4 C-terminal 12 aa]
tested-on: Saccharomyces cerevisiae
protein stability index: 0.708
//
chain-sequence: NIAPFPFFGKRR [PMD1 C-terminal 12 aa]
tested-on: Saccharomyces cerevisiae
protein stability index: 0.674
//
chain-sequence: DIPRSNVYGSLI [SCY1 C-terminal 12 aa]
tested-on: Saccharomyces cerevisiae
protein stability index: 0.672
//
chain-sequence: IKNRLNGLKYRL [YML020W C-terminal 12 aa]
tested-on: Saccharomyces cerevisiae
protein stability index: 0.678
//
chain-sequence: AFSSNDLLTVHL [BRE1 C-terminal 12 aa]
tested-on: Saccharomyces cerevisiae
protein stability index: 0.673
//
chain-sequence: INKTLAWMDEGL [ERG26 C-terminal 12 aa]
tested-on: Saccharomyces cerevisiae
protein stability index: 0.728
//
chain-sequence: PSSDHAKSVMGE [YML101C-A C-terminal 12 aa]
tested-on: Saccharomyces cerevisiae
protein stability index: 0.68
//
chain-sequence: LMQLLLGSLGLS [YKL145W-A C-terminal 12 aa]
tested-on: Saccharomyces cerevisiae
protein stability index: 0.716
//
chain-sequence: DVHSKIEKQLGI [UMP1 C-terminal 12 aa]
tested-on: Saccharomyces cerevisiae
protein stability index: 0.697
//
chain-sequence: YPVDKEGDIVLE [THP2 C-terminal 12 aa]
tested-on: Saccharomyces cerevisiae
protein stability index: 0.662
//
chain-sequence: DEFWTDLFMNDI [WAR1 C-terminal 12 aa]
tested-on: Saccharomyces cerevisiae
protein stability index: 0.757
//
chain-sequence: LSTFFLFHNPCN [YGL239C C-terminal 12 aa]
tested-on: Saccharomyces cerevisiae
protein stability index: 0.706
//
chain-sequence: DGYPKDNEDIDP [MAL13 C-terminal 12 aa]
tested-on: Saccharomyces cerevisiae
protein stability index: 0.708
//
chain-sequence: RELTDLFGYKLG [SLM4 C-terminal 12 aa]
tested-on: Saccharomyces cerevisiae
protein stability index: 0.677
